Test system: SF-268 CNS
Assay: NCI tumour cell line growth inhibition, 48 h
Each entry below carries its reported GI50.
experimental-endpoint: GI50

> print(dat)
                                chem.smiles  experimental.endpoint  measured.value
1  CCCN1CCC=C(c2ccc(Nc3nc(Nc4ccccc4C(N)=O)c4cc[nH]c4n3)c(C)c2)C1                   GI50         > 25 µM
2  Cc1cc2nc3c4ccc(Br)cc4n(CCN(C)C)c3nc2cc1C                   GI50            2 µM
3  O=C(c1ccc2ccccc2c1)c1c(C(F)(F)F)n([O-])c2ccc(F)cc2[n+]1=O                   GI50         1.73 µM
4  C/C(=N/O)c1ccc(Nc2cc(-n3ccnc3)c3ccccc3n2)cc1                   GI50        > 100 µM
5  O=C(/C=C/c1ccc([N+](=O)[O-])cc1)c1cccc(Nc2nc(Nc3ccccc3)nc(Nc3ccccc3)n2)c1                   GI50         17.6 µM
6  CCN(CC)Cc1cc(Nc2c3ccccc3nc3cc(Cl)ccc23)ccc1O                   GI50         1.63 µM
7  O=C(Nc1nc2ccccc2s1)c1cc(-c2ccc(F)cc2)n2nc(-c3ccccc3)cc2n1                   GI50         3.89 µM
8  Cn1cc(C2=C(c3cn(CCCCC(=N)N)c4ccccc34)C(=O)NC2=O)c2ccccc21                   GI50         > 25 µM
9  O=C(/C=C/c1ccco1)c1ccc(Nc2nc(Nc3ccc(F)cc3)nc(Nc3ccc(F)cc3)n2)cc1                   GI50         7.49 µM

====

Tested on: DMS 273 small cell lung
Test: NCI tumour cell line growth inhibition, 48 h
experimental-endpoint: TGI

molecule	experimental-endpoint	measured-value
CC(=O)Nc1ccc(-c2nnc(SCC(=O)Nc3ccc(Cl)cc3)o2)cc1	TGI	40.3 µM
COC(=O)C(C(=O)C(N)=O)c1csc(-n2nc(-c3ccccc3)cc2-c2ccccc2)n1 (stereo not drawn)	TGI	> 31.6 µM
c1ccc(-c2ccnc3c2ccc2c(-c4ccccc4)ccnc23)cc1	TGI	9.5 µM
CC(/C=N/N=C(N)N)=N\N=C(N)N	TGI	650 µM
COc1ccc(C)cc1C1CCC(=O)O1 (stereo not drawn)	TGI	> 100 µM
CCCCCCCCCCCCCCCCCC(=O)NCC(COP(=O)(O)O)OCC (stereo not drawn)	TGI	> 100 µM
O=c1[nH]cc(C(F)(C(F)(F)F)C(F)(F)F)c(=O)[nH]1	TGI	> 100 µM
COC(=O)C(=O)C(C(=O)C(=O)Nc1cc(Cl)c(Cl)cc1Cl)c1nc2ccc([N+](=O)[O-])cc2[nH]c1=O (stereo not drawn)	TGI	> 100 µM
CC1OC(=O)C(C(C)C)NC(=O)C(C(C)C)OC(=O)C(C(C)C)NC(=O)C(C)OC(=O)C(C(C)C)NC(=O)C(C(C)C)OC(=O)C(C(C)C)NC(=O)C(C)OC(=O)C(C(C)C)NC(=O)C(C(C)C)OC(=O)C(C(C)C)NC1=O (stereo not drawn)	TGI	0.0141 µM
CCN(CC)CCO[Si](OCCN(CC)CC)(OCCN(CC)CC)OCCN(CC)CC	TGI	> 100 µM
COc1ccc2c([nH]c3c(O)c(-c4c(C)cc5c([nH]c6c(CC=C(C)C)c(OC)ccc65)c4O)c(C)cc32)c1CC=C(C)C	TGI	> 100 µM
CC1=CC(=O)NP(=O)(C23CC4CC(CC(C4)C2)C3)N1 (stereo not drawn)	TGI	> 100 µM
C(=C/c1nc2ccccc2o1)/c1ccc2c(c1)OCO2	TGI	> 37.5 µM
O=S1(=O)c2ccccc2N=C(c2ccccc2Cl)CC1c1ccc(F)cc1 (stereo not drawn)	TGI	45.3 µM
CCOC(=O)CC(NC(=O)c1ccc(N=NN(C)C)cc1)C(=O)OCC (stereo not drawn)	TGI	> 100 µM
CCOC(C)OC1CC(n2cc(C)c(=O)[nH]c2=O)OC1CO (stereo not drawn)	TGI	> 100 µM
O=C(/C=C/C1C(=O)NC(=O)NC1=O)CC(=O)C(=O)Nc1cc(Cl)c(Cl)cc1Cl	TGI	> 100 µM
O=C(CCC1CCCCN1)Nc1ccc2c(c1)C(=O)c1ccc(NC(=O)CCN3CCCCC3)cc1C2=O (stereo not drawn)	TGI	7.55 µM

Data credit: PubChem BioAssay (NCI)
